These measurements were taken from ChEMBL document CHEMBL1157705.

biological target: Carbonic anhydrase 2 (Homo sapiens) (UniProt P00918)
readout type: Ki (µM)

>>> data_value("COCCNC(=O)Cc1ccc(O)c(Cl)c1")
10.4
>>> data_value("COc1cc([C@@H]2[C@@H](C)[C@@H](C)[C@@H]2c2ccc(O)c(OC)c2)ccc1O")
12.1
>>> data_value("O=C(Cc1ccc(O)c(Cl)c1)NCCc1ccccc1")
9.8
>>> data_value("COc1cc(C[C@@H](C)[C@H](C)Cc2ccc(O)c(OC)c2)ccc1O")
230
>>> data_value("COC(=O)/C=C/C(=O)O")
7.5
>>> data_value("O=C(O)Cc1ccc(O)cc1")
10.3
>>> data_value("OCCc1ccc(O)cc1")
8.7
>>> data_value("COc1cc(/C=C2\\N=C(N)NC2=O)ccc1O")
9.6
>>> data_value("O=C(Cc1ccc(O)c(Cl)c1)NCc1ccccc1")
11.4
>>> data_value("O=C(O)/C=C/C(=O)O")
10.5
>>> data_value("COc1cc([C@@H]2[C@@H](C)[C@H](C)[C@H]2c2ccc(O)c(OC)c2)ccc1O")
11.7
>>> data_value("CCCCNC(=O)Cc1ccc(O)c(Cl)c1")
9.4
